Provenance of the data: patent US20220080036A1

molecular target: T1, IsdB (iron-regulated surface determinant protein B), recombinant (Staphylococcus aureus, UniProt A6QG30 41-609); assay: ELISA on coated recombinant antigen, half-maximal binding
T1 construct: also called recombinant IsdB
T1 sequence (A6QG30 41-609 limits assumed): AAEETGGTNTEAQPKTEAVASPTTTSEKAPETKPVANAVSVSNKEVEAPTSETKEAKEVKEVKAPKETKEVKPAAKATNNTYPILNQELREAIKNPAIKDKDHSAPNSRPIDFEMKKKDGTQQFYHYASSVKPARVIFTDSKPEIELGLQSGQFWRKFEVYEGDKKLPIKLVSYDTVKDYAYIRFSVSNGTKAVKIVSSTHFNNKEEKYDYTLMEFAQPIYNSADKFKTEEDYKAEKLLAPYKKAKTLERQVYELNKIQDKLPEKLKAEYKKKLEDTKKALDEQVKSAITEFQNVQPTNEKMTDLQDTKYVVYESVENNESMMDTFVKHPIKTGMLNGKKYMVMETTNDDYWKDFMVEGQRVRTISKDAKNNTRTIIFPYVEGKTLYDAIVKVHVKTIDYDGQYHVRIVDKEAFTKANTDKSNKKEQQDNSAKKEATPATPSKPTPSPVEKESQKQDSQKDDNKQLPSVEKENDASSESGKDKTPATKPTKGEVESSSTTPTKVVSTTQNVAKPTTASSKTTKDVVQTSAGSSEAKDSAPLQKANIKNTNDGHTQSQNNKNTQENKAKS
Please use T for EC50 under 0.5 mg/L and F for everything else, ties included.

Worked set:
binder: STAU-401 (antibody, V domains shown) VH: QVQLVQSGPEARKPGTSVKVSCKTSGYTFSSYGIAWVRQAPGQGLEWMGWISGYSDYTIYAQRLQGRVSMTTDPYTSTAYMELRSLRPDDTAVYYCATLSFGELVENKLDFWGQGTLVTVSS VL: QSVLTQPPSVSGAPGQRVTISCTGTSSNIGADYAVHWYQQLPGTAPKLLIYGTINRPSGVPDRFSGSRSGTSASLAITGLQADDEADYYCQSYDSSLSGSVVFGGGTKLTVL
assignedClass: F

binder: STAU-307 (antibody, V domains shown) VH: QVQLVQSGAEVKKTGSSVKVSCTASGATFNTNDLMWVRQAPGQGLEWMGGIVPVFGRPKYAKKFHGRLIISADEFTTTFYMELTSLTFDDTAIYYCARSGSTESPIQHIDFWGQGTLVTVSS VL: SYVLTQPPSVSVAPGQTATITCGGDNIATFSVHWYRQKPGQAPVLVVYDDLDRASGIPARFSGSNSGNTATLTISRVEPGDEADYFCQVWEISSDEYVFGPGTSVTVL
assignedClass: T

binder: STAU-399 (antibody, V domains shown) VH: QVQLVQSGAEVKKPGSSLKVSCKVSGGNLRSYGISWVRQAPGQGLEWMGVIIPIFGTPTYAQKFQGRVTLAADDSNNIVFMELSSLRSEDTAVYYCARDWPSITVAVDATNYGMDVWGQGTLVTVSS VL: QSALTQPRSVSGSPGQSVTISCTGTSNDVGYYDHVSWYQQHPGKAPKFIIYDVSKRPSGVPDRFSGSKSDNTASLTISGLQAEDEADYYCCSFAGSYTYVFGTGTKVTVL
assignedClass: F

binder: STAU-64 (antibody, V domains shown) VH: EVQLVESGGGLVKPGGSLRLSCAASGFSFSYYSMNWVRQAPGKGLEWISSISSSGEYIYYADSVKGRFTISRDNAENSLYLQMNSLRAEDTAVYYCAKVVSQQSLDYWGQGTLVTVSS VL: DIVMTQSPSSLSVSVGDRVTITCRASQSISTYLNWYQQKPGKAPKLLISGGSNLQSGVPSRFSGSGSGTDFTLTIISLQPEDFATYYCQQSYSTRYSFGQGTKLEIK
assignedClass: T

Now, please, on to the next binder.
Prompt: Would you kindly verify if EC50 of STAU-201 (antibody, V domains shown) VH: QVQLVQSGPEVKKPGASVKVSCKASGYTFTNYGLTWVRQAPGKGLEWIGWISPYTGRAKFALKFQGRFTLTTDTSTTTAYMEVRSLKSDDSAVYYCAREGIKDASAFDFWGQGTLVTVSS VL: QSALTQPASVSGSPGQSITISCTGTGSDIGGYNHVSWYHHYPGKAPKLLIFGVTHRPSGVSDRFSGSKSGVTAFLTISGLQAEDEADYYCSSYTDNTSWVFGGGTKVTVL is strictly less than 0.5 mg/L?
Completion: F
